Target: T1, human C1q (human, UniProt P02745 23-245; P02746 28-253; P02747 29-245)
T1 construct: Human C1q (Sigma) in the ELISA; hC1q coated at 100 nM in the RIA; also called hC1q
T1 sequence (P02745 23-245 limits assumed, chain 1 of 3): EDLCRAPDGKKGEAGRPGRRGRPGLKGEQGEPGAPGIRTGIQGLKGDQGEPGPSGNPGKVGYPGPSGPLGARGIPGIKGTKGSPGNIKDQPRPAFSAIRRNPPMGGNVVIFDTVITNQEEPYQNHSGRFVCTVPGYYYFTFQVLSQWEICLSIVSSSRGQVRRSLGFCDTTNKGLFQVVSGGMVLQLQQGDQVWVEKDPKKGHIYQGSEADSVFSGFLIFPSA
T1 sequence (P02746 28-253 limits assumed, chain 2 of 3): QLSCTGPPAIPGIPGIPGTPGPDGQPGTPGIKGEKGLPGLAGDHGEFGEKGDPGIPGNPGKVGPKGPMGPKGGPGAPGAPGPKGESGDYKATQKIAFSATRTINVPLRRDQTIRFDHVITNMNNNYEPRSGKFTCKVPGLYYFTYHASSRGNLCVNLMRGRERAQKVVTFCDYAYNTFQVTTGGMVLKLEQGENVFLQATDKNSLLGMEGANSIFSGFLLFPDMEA
T1 sequence (P02747 29-245 limits assumed, chain 3 of 3): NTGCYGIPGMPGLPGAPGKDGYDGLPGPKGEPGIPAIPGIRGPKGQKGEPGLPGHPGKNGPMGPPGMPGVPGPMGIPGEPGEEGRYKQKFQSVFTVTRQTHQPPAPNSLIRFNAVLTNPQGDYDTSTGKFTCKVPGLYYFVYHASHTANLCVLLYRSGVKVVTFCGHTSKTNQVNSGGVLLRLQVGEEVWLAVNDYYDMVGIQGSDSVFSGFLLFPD
Assay: RIA, 35S-labelled Fc on coated C1q
measurementKind: RIA for C1q (fold over wild-type)
Write the value in fold over wild-type as a bare number.

**Q:** Could you share which RIA for C1q value was measured for Fc polypeptide variant 3C11 (Fcγ1, in vitro translated) (other, Fc region only, in vitro translated with 35S-methionine for RIA) AHTCPPCPAPELLGGPSVFLFPPKPKDTLMISRTPEVTCVVVDVSHEDPEVKFNWYVDGVEVHNAKTKPREEQYNSTYRVVSVLTVLHQDWLNGKEYKCKVSNKALPAPIEKTISKAKGQPREPRVYTLPPSREEMTKYQVSLTCLVKGFYPSDIAVEWESNGQPENNYKTTPPVLDSDGSFFLYSKLTVDKSRWQQGNVFSCSVMHEALHNHYTQRSLSLSPGK ?
**A:** 1.2
